Each recorded value in this set is attributed to patent US6858638B2.

Test system: c-Src protein
protocol-summary: Src kinase phosphorylation of biotinylated cdc2 substrate, fluorescence (DELFIA)
Assay type: biochemical, human
test-readout: SRC % inhib at 10 μM (%)

{"test-smiles": "O=S(=O)(Nc1ccc2[nH]nc(-c3ccccc3)c2c1)c1cccs1", "meas-value": 45}
{"test-smiles": "O=[N+]([O-])c1cccc(S(=O)(=O)Nc2ccc3[nH]nc(-c4ccccc4)c3c2)c1", "meas-value": 76}
{"test-smiles": "CS(=O)(=O)c1ccccc1S(=O)(=O)Nc1ccc2[nH]nc(-c3ccc4ccccc4c3)c2c1", "meas-value": 40}
{"test-smiles": "O=S(=O)(Nc1ccc2[nH]nc(-c3ccccc3)c2c1)c1ccccc1", "meas-value": 47}
{"test-smiles": "O=S(=O)(Nc1ccc2[nH]nc(-c3ccccc3)c2c1)c1ccc(F)c(F)c1", "meas-value": 43}
{"test-smiles": "CS(=O)(=O)c1ccccc1S(=O)(=O)Nc1ccc2[nH]nc(-c3cc4ccccc4[nH]3)c2c1", "meas-value": 99}
{"test-smiles": "O=S(=O)(Nc1ccc2[nH]nc(-c3ccccc3)c2c1)c1ccc(Cl)s1", "meas-value": 54}

I = CS(=O)(=O)c1ccccc1S(=O)(=O)Nc1ccc2[nH]nc(Br)c2c1
II = CS(=O)(=O)c1ccccc1S(=O)(=O)Nc1ccc2[nH]nc(-c3cc4ccccc4s3)c2c1
Quick check, higher SRC % inhib at 10 μM between I and II ? // respond with label for picked entry
II
(II: 96%, I: 56%)
